# Lookup of reported self-aminoacylation keyed by entry
# Test system: biotinyl-Val-oxazolone
# method: self-aminoacylation, catalytic enhancement (BVO) (fold over background); higher = more active; k-Seq, kA / k0A0; sequences stand for … in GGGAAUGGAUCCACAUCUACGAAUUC…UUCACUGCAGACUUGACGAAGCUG
Fewer inactive variants are shown than the library holds.
Give a plain numeric answer without units written out.

residues | reported
AUUCACCUAGUCCAUCGGGUG [Fam2.2 aminoacylation ribozyme variant] | 3.82

Report self-aminoacylation for AUGCACCUAGGCCAUCGGGUG [Fam2.2 aminoacylation ribozyme variant] please. 3.41

Report self-aminoacylation for AAGUUUGCUUAUAGUAGCAAG [Fam3.1 aminoacylation ribozyme variant] please. 1.12

Report self-aminoacylation for AUUCACCUAUGUCAACGGGUG [Fam2.2 aminoacylation ribozyme variant] please. 2.01

Report self-aminoacylation for AUAACCCUGGUCAUCGAUUGA [Fam2.1 aminoacylation ribozyme variant] please. 0.974

Report self-aminoacylation for AAGGUUGCAAAUAGUCGCAAG [Fam3.1 aminoacylation ribozyme variant] please. 1.08

Report self-aminoacylation for CCACACUUCAAGCGAUCGGUA [Fam1B.1 aminoacylation ribozyme variant] please. 2.2

Report self-aminoacylation for AUUCCCCUAGGUCAUCGGGUU [Fam2.2 aminoacylation ribozyme variant] please. 6.74

Report self-aminoacylation for AUUACCCUUGUCACCGAGUGA [Fam2.1 aminoacylation ribozyme variant] please. 4.31

Reference source: the supplement of paper PMC9233669
